Values from BindingDB's records for doi:10.1016/j.chembiol.2004.12.010

Record form. Attribute: pKi. Fill in for each entry.
target: Adenosine receptor A2a (Homo sapiens); experiment: Binding Assay
Sequence (P29274 whole entry): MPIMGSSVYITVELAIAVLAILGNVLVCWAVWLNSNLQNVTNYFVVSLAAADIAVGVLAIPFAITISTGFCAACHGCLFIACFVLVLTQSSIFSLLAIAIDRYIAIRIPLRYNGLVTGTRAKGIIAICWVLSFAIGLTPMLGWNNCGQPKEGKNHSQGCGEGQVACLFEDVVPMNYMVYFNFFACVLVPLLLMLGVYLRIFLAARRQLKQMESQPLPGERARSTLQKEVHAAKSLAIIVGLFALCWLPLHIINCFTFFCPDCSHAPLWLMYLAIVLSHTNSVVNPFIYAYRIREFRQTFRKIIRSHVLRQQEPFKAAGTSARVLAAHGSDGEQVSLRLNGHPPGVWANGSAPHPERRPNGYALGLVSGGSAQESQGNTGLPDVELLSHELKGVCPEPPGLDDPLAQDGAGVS
API: returns pKi as number; meaning -log10 of concentration in mol/L.

Input line: # lookup: pKi of NNC(=O)[C@H]1O[C@@H](n2cnc3c(N)ncnc32)[C@H](O)[C@@H]1O
Output line: 5.65

Input line: Please look up its pKi: Cc1ccccc1CNc1ncnc2c1ncn2[C@@H]1O[C@H](CO)[C@@H](O)[C@H]1O
Output line: 6.12

Input line: Please look up its pKi: CCNC(=O)[C@H]1O[C@@H](n2cnc3c(NCc4ccccc4C)ncnc32)[C@H](O)[C@@H]1O
Output line: 5.27

Input line: What does the record list as pKi for Cc1ccccc1CNc1ncnc2c1ncn2[C@@H]1O[C@H](C(=O)NCCN)[C@@H](O)[C@H]1O ?
Output line: 4.25
